System: HeLa Kyoto
Assay: solubility change mitosis vs G1/S (difference of NP-40 vs SDS log2 ratios) (log2 ratio difference); higher = more soluble in mitosis
Provide the reported solubility change mitosis (log2) of each item.
Reply briefly: the number, and no unit.

The recorded solubility change mitosis (log2) for MAVTALAARTWLGVWGVRTMQARGFGSDQSENVDRGAGSIREAGGAFGKREQAEEERYFRAQSREQLAALKKHHEEEIVHHKKEIERLQKEIERHKQKIKMLKHDD [ATPIF1] is 0.408

The recorded solubility change mitosis (log2) for MKKEHVLHCQFSAWYPFFRGVTIKSVILPLPQNVKDYLLDDGTLVVSGRDDPPTHSQPDSDDEAEEIQWSDDENTATLTAPEFPEFATKVQEAINSLGGSVFPKLNWSAPRDAYWIAMNSSLKCKTLSDIFLLFKSSDFITRDFTQPFIHCTDDSPDPCIEYELVLRKWCELIPGAEFRCFVKENKLIGISQRDYTQYYDHISKQKEEIRRCIQDFFKKHIQYKFLDEDFVFDIYRDSRGKVWLIDFNPFGEVTDSLLFTWEELISENNLNGDFSEVDAQEQDSPAFRCTNSEVTVQPSPYLSYRLPKDFVDLSTGEDAHKLIDFLKLKRNQQEDD [CDC123] is -0.111

The recorded solubility change mitosis (log2) for MIEQQKRKGPELPLVPVKRQRHELLLGAGSGPGAGQQQATPGALLQAGPPRCSSLQAPIMLLSGHEGEVYCCKFHPNGSTLASAGFDRLILLWNVYGDCDNYATLKGHSGAVMELHYNTDGSMLFSASTDKTVAVWDSETGERVKRLKGHTSFVNSCYPARRGPQLVCTGSDDGTVKLWDIRKKAAIQTFQNTYQVLAVTFNDTSDQIISGGIDNDIKVWDLRQNKLTYTMRGHADSVTGLSLSSEGSYLLSNAMDNTVRVWDVRPFAPKERCVKIFQGNVHNFEKNLLRCSWSPDGSKIAAGSADRFVYVWDTTSRRILYKLPGHAGSINEVAFHPDEPIIISASSDKRLYMGEIQ [SNRNP40] is 0.366

---

Tested on: HeLa Kyoto
Experiment: solubility in G1/S (NP-40 vs SDS abundance) (log2 ratio); higher = more soluble
Settings: cell cycle stage: G1/S
Provide the reported solubility in G1/S (log2) of each item.
Reply briefly: the number, and no unit.

// returns solubility in G1/S (log2) for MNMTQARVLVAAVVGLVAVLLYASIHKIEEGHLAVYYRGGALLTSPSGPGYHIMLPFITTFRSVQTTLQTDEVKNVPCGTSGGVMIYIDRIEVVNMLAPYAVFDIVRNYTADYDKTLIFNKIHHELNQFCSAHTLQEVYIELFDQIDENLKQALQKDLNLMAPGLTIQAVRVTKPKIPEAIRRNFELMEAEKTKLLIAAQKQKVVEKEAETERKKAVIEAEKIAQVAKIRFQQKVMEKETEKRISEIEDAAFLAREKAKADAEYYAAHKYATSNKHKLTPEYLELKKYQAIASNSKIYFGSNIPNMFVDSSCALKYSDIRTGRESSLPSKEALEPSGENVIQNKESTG [ERLIN1] with HeLa Kyoto; value = 0.24

// returns solubility in G1/S (log2) for MIRNGRGAAGGAEQPGPGGRRAVRVWCDGCYDMVHYGHSNQLRQARAMGDYLIVGVHTDEEIAKHKGPPVFTQEERYKMVQAIKWVDEVVPAAPYVTTLETLDKYNCDFCVHGNDITLTVDGRDTYEEVKQAGRYRECKRTQGVSTTDLVGRMLLVTKAHHSSQEMSSEYREYADSFGKCPGGRNPWTGVSQFLQTSQKIIQFASGKEPQPGETVIYVAGAFDLFHIGHVDFLEKVHRLAERPYIIAGLHFDQEVNHYKGKNYPIMNLHERTLSVLACRYVSEVVIGAPYAVTAELLSHFKVDLVCHGKTEIIPDRDGSDPYQEPKRRGIFRQIDSGSNLTTDLIVQRIITNRLEYEARNQKKEAKELAFLEAARQQAAQPLGERDGDF [PCYT2] with HeLa Kyoto; value = 0.000861
